Origin of values: PubChem BioAssay (NCI)

Reported growth values are given for each entry in this list.
# Test system: SN12C renal
# ASSAY_OVERVIEW: NCI-60 one-dose screen, 48 h (100 = growth as untreated, 0 = no growth, -100 = all killed)
# SETTINGS: 10 µM
Compounds without any hit were thinned out: in the full panel of roughly 83,000, 20% have a hit. Activity calls are given as the source filed them. How the source made its calls: active means growth percent below 10; inactive means the rest.

The cases that follow already have their growth on record.
C[C@]12CC[C@@H]3c4ccc(OS(=O)(=O)O)cc4CC[C@H]3[C@@H]1CC[C@@H]2NS(=O)(=O)c1ccc(-c2ccccc2)cc1 = 68.7% (inactive)
O=S(=O)(O)c1cccc(Nc2ccc3ccccc3c2)c1 = 92.5% (inactive)
O=C(COc1cccc(/C=C2\CSc3ccccc3C2=O)c1)c1ccc(Cl)cc1 = -6.61% (active)
COc1ccc(Nc2cnc3cc(NS(=O)(=O)c4ccc(C)cc4)ccc3n2)cc1 = 85.9% (inactive)
CC(=O)OC1CC2C(C)(C)CCC[C@]2(C)C2=C1C(O)=C(C(C)C)C(=O)C2=O (stereo not given in full) = 3.28% (active)

Would you mind telling me what growth value was observed for c1ccc(CCCCc2ccc3ccccc3n2)cc1 ?
105% (inactive)

Name the reported growth value associated with the molecule COc1ccc(-c2csc(NC(=O)c3ccc(Cc4n[nH]c(=O)c5cccnc45)cc3)n2)cc1
89.1% (inactive)

Recorded growth of COc1ccc(-c2cc(-c3ccc(Cl)cc3)nc(SCCCC(=O)NO)n2)cc1OC , please.
6.47% (active)

Value lookup for growth; key = COc1cc(/C=C2\CCCC3=C2NC(N)=NC3c2cc(OC)c(OC)c(OC)c2)cc(OC)c1OC (stereo not given)
-5.19% (active)

Find the recorded growth belonging to CCCCC/C=C/C/C=C/CCCCCCCC1=NC(C)(C)CN1C(C)C and report it.
47.9% (inactive)

What value of growth has been reported for the following molecule? OC[C@H]1OC([S-])[C@H](O)[C@@H](O)[C@@H]1O.[Au+] (stereo not given in full)
98.5% (inactive)
